pIC50: −log10 of the molar value.
Consider the following pIC50 values measured on UniProt Q06187.

Sample records with pIC50:
Exercise: Report pIC50 for O=C(CNc1ccccc1S(=O)(=O)N1CCOCC1)N[C@@H]1CCCN(c2ncnc3[nH]ncc23)C1 [Example 242] please.
Key: > 7.00

Exercise: Quick one: pIC50 of O=C(CNc1cccc(-c2nnco2)c1)NC1CCCN(c2ncnc3[nH]ccc23)C1 (centres unmarked) [Example 349] ?
Key: < 5.00

Exercise: Which measured pIC50 value corresponds to O=C(CNc1cccc(CO)c1)N[C@@H]1CCCN(c2ncnc3[nH]ccc23)C1 [Example 394] ?
Key: 5.00 to 6.00

Exercise: Reported pIC50, compound CN(C(=O)CNc1ccccc1)C1CCCN(c2ncnc3[nH]ccc23)C1 (centres unmarked) [Example 223] : ____
Key: 6.00 to 7.00

Exercise: Need pIC50 of CN(C)S(=O)(=O)c1ccc(F)cc1NCC(=O)N[C@@H]1CCCN(c2ncnc3[nH]ccc23)C1 [Example 246] , thanks.
Key: 6.00 to 7.00

Exercise: // returns reported pIC50 for input Cc1ccccc1NCC(=O)N[C@@H]1CCCN(c2ncnc3[nH]ccc23)C1 [Example 268]
Key: 6.00 to 7.00

Exercise: // returns reported pIC50 for input CC(C)(C)c1cccc(NCC(=O)NC2CCCN(c3ncnc4[nH]ccc34)C2)c1 (centres unmarked) [Example 18]
Key: 6.00 to 7.00

Exercise: Reported pIC50, compound O=C(N[C@@H]1CCCN(c2ncnc3[nH]ccc23)C1)[C@H](Nc1ccccc1)C1CC1 [Example 107] : ____
Key: > 7.00

More entries:
Exercise: State the recorded pIC50 for this entry: O=C(NC1CCCN(c2ncnc3[nH]ccc23)C1)[C@@H](CCCO)Nc1ccccc1 (some centres unmarked) [Example 447]
Key: 5.00 to 6.00

Exercise: Report pIC50 for O=C(NC1CCCN(c2ncnc3[nH]ccc23)C1)c1cc2ccccc2[nH]1 (centres unmarked) [Example 362] please.
Key: 5.00 to 6.00

Exercise: Value lookup for pIC50; key = O=C(CNc1cccc2ccccc12)N[C@@H]1CCCN(c2ncnc3[nH]ccc23)C1 [Example 274]
Key: 6.00 to 7.00

Exercise: Which measured pIC50 value corresponds to O=C(CNc1ccc(F)cc1F)N[C@@H]1CCCN(c2ncnc3[nH]ccc23)C1 [Example 454] ?
Key: 5.00 to 6.00

Exercise: Can you look up the measured pIC50 of COc1ccc(C)cc1NCC(=O)N[C@@H]1CCCN(c2ncnc3[nH]ccc23)C1 [Example 270] for me?
Key: > 7.00

====

The entries below are paired with their reported IC50.
# tgt: BTK (Homo sapiens, UniProt Q06187)
# Sequence (Q06187 whole entry): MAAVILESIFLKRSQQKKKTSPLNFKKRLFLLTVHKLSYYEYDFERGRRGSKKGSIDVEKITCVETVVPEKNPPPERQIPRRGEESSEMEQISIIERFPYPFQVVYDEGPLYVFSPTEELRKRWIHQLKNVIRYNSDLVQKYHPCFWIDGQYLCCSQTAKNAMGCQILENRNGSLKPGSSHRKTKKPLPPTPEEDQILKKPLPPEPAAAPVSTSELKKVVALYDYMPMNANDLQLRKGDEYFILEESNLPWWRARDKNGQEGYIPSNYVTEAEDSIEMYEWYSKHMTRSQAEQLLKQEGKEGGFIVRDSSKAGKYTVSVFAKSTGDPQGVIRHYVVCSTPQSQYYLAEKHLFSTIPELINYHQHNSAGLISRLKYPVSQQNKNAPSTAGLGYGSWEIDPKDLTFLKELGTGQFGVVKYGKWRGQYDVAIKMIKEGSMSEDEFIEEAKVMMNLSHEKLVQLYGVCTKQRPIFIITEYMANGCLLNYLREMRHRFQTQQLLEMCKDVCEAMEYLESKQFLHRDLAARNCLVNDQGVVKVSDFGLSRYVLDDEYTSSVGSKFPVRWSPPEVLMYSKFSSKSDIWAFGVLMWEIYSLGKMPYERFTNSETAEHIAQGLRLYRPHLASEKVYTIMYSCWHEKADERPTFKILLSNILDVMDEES

Exercise: What measured IC50 goes with O=C(CNc1ccccc1S(=O)(=O)N1CCCC1)N[C@@H]1CCCN(c2ncnc3[nH]ccc23)C1 ?
Key: < 100 nM

Exercise: Suppose we examine the compound O=C(CNC(=O)N1CCCCC1)NC1CCCN(c2ncnc3[nH]ccc23)C1 (centres unmarked) ; what IC50 value has been reported?
Key: > 10000 nM

Exercise: Suppose we examine the compound O=C(CNC1CCCc2ccccc21)NC1CCCN(c2ncnc3[nH]ccc23)C1 (centres unmarked) ; what IC50 value has been reported?
Key: > 10000 nM

Exercise: Give its IC50 value. Item: O=C(CNc1ccncc1)NC1CCCN(c2ncnc3[nH]ccc23)C1 (centres unmarked)
Key: > 10000 nM

Exercise: Requested field: IC50. Item: O=C(CNc1cc(F)ccc1F)N[C@@H]1CCCN(c2ncnc3[nH]ccc23)C1
Key: 100 to 999 nM

====

Attribute: pIC50
# tgt: BTK (Homo sapiens)
# Construct: purchased Upstate 14-552
# assay.info: In vitro BTK kinase assay: BTK-POLYGAT-LS ASSAY
# Format: biochemical
# settings: ATP 10 uM
pIC50: −log10 of the molar value.

These solved cases illustrate the format of a correct answer.
Exercise: Requested field: pIC50. Item: O=C(CNc1ccc(Cl)cc1F)N[C@@H]1CCCN(c2ncnc3[nH]ccc23)C1
Key: 5.00 to 6.00

Exercise: Please give the measured pIC50 for this compound: CC(C)(C)c1ccc(C(=O)NCC(=O)NC2CCCN(c3ncnc4[nH]ccc34)C2)cc1 (centres unmarked)
Key: 6.00 to 7.00

Exercise: So what's the measured pIC50 for this one? O=C(NC1CCCN(c2ncnc3[nH]ccc23)C1)C1NCc2ccccc21 (centres unmarked)
Key: < 5.00

Exercise: Which value of pIC50 has been reported for O=C(CNc1cccc(-c2cc[nH]n2)c1)N[C@@H]1CCCN(c2ncnc3[nH]ccc23)C1 in the records?
Key: 5.00 to 6.00

Exercise: Would you kindly share the measured pIC50 for Nc1cc(N2CCC[C@@H](NC(=O)[C@H](Nc3cc(F)cc(Cl)c3)C3CC3)C2)ncn1 ?
Key: 6.00 to 7.00

Exercise: Look up pIC50: CC(O)c1cccc(NCC(=O)NC2CCCN(c3ncnc4[nH]ccc34)C2)c1 (centres unmarked)
Key: < 5.00

Exercise: Using the record for Cc1c(Cl)cccc1NCC(=O)NC1CCCN(c2ncnc3[nH]ccc23)C1 (centres unmarked) , report its pIC50.
Key: 6.00 to 7.00

Moving on to the next compound.
Exercise: I have this compound here, O=C(Cc1ccccc1)NCC(=O)NC1CCCN(c2ncnc3[nH]ccc23)C1 (centres unmarked) , and I need its recorded pIC50.
Key: 5.00 to 6.00

====

# tgt: BTK (Homo sapiens, UniProt Q06187)
# Construct: purchased Upstate 14-552
# assay.info: In vitro BTK kinase assay: BTK-POLYGAT-LS ASSAY
# Type: biochemical
# settings: ATP 10 uM
pIC50: −log10 of the molar value.
Listing: pIC50 of selected molecules

Reference set (4 entries):
Exercise: Endpoint output: pIC50 of C[C@H](O)[C@@H](Nc1cccc(Cl)c1)C(=O)N[C@@H]1CCCN(c2ncnc3[nH]ccc23)C1 . Value?
Key: > 7.00

Exercise: Reported pIC50 for O=C(CNc1cc(C(F)(F)F)ccc1N1CCCC1)N[C@@H]1CCCN(c2ncnc3[nH]ccc23)C1 : what is it?
Key: 6.00 to 7.00

Exercise: Which pIC50 value belongs to O=C(N[C@@H]1CCCN(c2ncnc3[nH]ccc23)C1)[C@@H](CC1CC1)Nc1cccc(Cl)c1 ?
Key: 5.00 to 6.00

Exercise: Returns the measured pIC50 for the input molecule. Input: C[C@H](O)[C@@H](Nc1cc(Cl)cc(Cl)c1)C(=O)N[C@@H]1CCCN(c2ncnc3[nH]ncc23)C1
Key: > 7.00

Continuing:
Exercise: Bench note: what pIC50 did O=C(CNc1cccc(N2CCCC2)c1)N[C@@H]1CCCN(c2ncnc3[nH]ccc23)C1 show?
Key: 6.00 to 7.00

Exercise: Which pIC50 reading was recorded for the molecule N#Cc1c(F)cccc1NCC(=O)N[C@@H]1CCCN(c2ncnc3[nH]ccc23)C1 ?
Key: 5.00 to 6.00

Exercise: Dear colleague, I am looking for the recorded pIC50 of the following molecule: CC[C@@H](Nc1ccccc1)C(=O)N[C@@H]1CCCN(c2ncnc3[nH]ccc23)C1
Key: > 7.00

Exercise: Given O=C(CNc1ccccc1Cl)NC1CCCN(c2ncnc3[nH]ccc23)C1 (centres unmarked) , state its recorded pIC50.
Key: 6.00 to 7.00

====

// endpoint IC50 / system UniProtKB Q06187

Exercise: If you can, please state the reported IC50 value of CC[C@@H](Nc1cc(F)cc(Cl)c1)C(=O)N[C@@H]1CCCN(c2ncnc3[nH]ncc23)C1 .
Key: < 0.1 µM

Exercise: Requested field: IC50. Item: CN(C(C)(C)C)S(=O)(=O)c1ccccc1NCC(=O)N[C@@H]1CCCN(c2ncnc3[nH]ncc23)C1
Key: 0.1 to 0.999 µM

====

Reported IC50 values for the following molecules.
# tgt: BTK (Homo sapiens)

Consider the reported IC50 for these molecules:
Exercise: Which measured IC50 value corresponds to COc1cccc(NCC(=O)NC2CCCN(c3ncnc4[nH]ccc34)C2)c1 (centres unmarked) ?
Key: 100 to 999 nM

Exercise: State the recorded IC50 for this entry: O=C(CNc1ccccc1)NC1CCCN(c2ncnc3[nH]cnc23)C1 (centres unmarked)
Key: > 10000 nM

Exercise: Find the recorded IC50 belonging to O=C(CNc1ccccc1)N[C@H]1CCN(c2ncnc3[nH]ccc23)C1 and report it.
Key: > 10000 nM

Exercise: Endpoint output: IC50 of Cc1ccc(NCC(=O)N[C@@H]2CCCN(c3ncnc4[nH]ccc34)C2)cc1F . Value?
Key: 100 to 999 nM

Exercise: GET /values?readout=IC50&item= CC1CCC(C)N1S(=O)(=O)c1ccccc1NCC(=O)N[C@@H]1CCCN(c2ncnc3[nH]ncc23)C1 (some centres unmarked)
Key: < 100 nM

Exercise: Give its IC50 value. Item: C[C@@H](Nc1cc(F)cc(Cl)c1)C(=O)N[C@@H]1CCCN(c2ncnc3[nH]ccc23)C1
Key: < 100 nM

Exercise: Return reported IC50; argument: CC[C@H](C)[C@@H](Nc1ccccc1)C(=O)N[C@@H]1CCCN(c2ncnc3[nH]ccc23)C1
Key: 100 to 999 nM

Exercise: Which IC50 value belongs to CCOc1ccc(OCC)c(NCC(=O)N[C@@H]2CCCN(c3ncnc4[nH]ccc34)C2)c1 ?
Key: 1000 to 10000 nM

Exercise: Give its IC50 value. Item: C[C@H]1CCN(c2ncnc3[nH]ncc23)C[C@@H]1NC(=O)[C@H](Nc1cc(Cl)cc(Cl)c1)C1CC1
Key: < 100 nM

Exercise: Which IC50 is reported for this molecule? O=C(CNc1ccccc1OC1CCCCC1)N[C@@H]1CCCN(c2ncnc3[nH]ccc23)C1
Key: < 100 nM

New cases:
Exercise: Reported IC50 for O=C(CNc1ccccc1)N[C@@H]1CCN(c2ncnc3[nH]ccc23)C1 : what is it?
Key: > 10000 nM

Exercise: Given the molecule Cn1ccc2c(N3CCC[C@@H](NC(=O)[C@H](Nc4cc(F)cc(Cl)c4)C4CC4)C3)ncnc21 , what is its reported IC50?
Key: 100 to 999 nM

Exercise: May I ask what IC50 has been recorded for CN1CCN(S(=O)(=O)c2ccccc2NCC(=O)N[C@@H]2CCCN(c3ncnc4[nH]ccc34)C2)CC1 ?
Key: 1000 to 10000 nM

Exercise: Sample O=C(CNc1ccccc1S(=O)(=O)N1CCOCC1)N[C@@H]1CCCN(c2ncnc3[nH]ccc23)C1 — what was its IC50?
Key: < 100 nM

Exercise: Sample CS(=O)(=O)CC[C@@H](Nc1ccccc1)C(=O)N[C@@H]1CCCN(c2ncnc3[nH]ccc23)C1 — what was its IC50?
Key: 1000 to 10000 nM
